Origin of values: ChEMBL document CHEMBL1138010

assay.notes: Oral bioavailability after dosing 2 mg/kg iv and 10 mg/kg po
Format: ADME, organism-based
cond: rat, in vivo
parameter: bioavailability
Please answer using a numeric value trailed by its unit.

Sure, the documented bioavailability for "N#Cc1cc(F)cc(-n2nnc(-c3ccccn3)n2)c1" is 24%

====

assay.notes: Half life was determined
Assay type: ADME
cond: rat
parameter: half-life (min)
Value expressed in min; do not type the unit.

Sure, the documented half-life for "Cc1c[nH]c(-c2nnn(-c3cc(F)cc(C#N)c3)n2)n1" is 18

====

system.tested: Metabotropic glutamate receptor 5 (Rattus norvegicus)
assay.notes: Percent occupancy of the Metabotropic glutamate receptor 5 by the [3H]3-methoxy-5-(pyridin-2-ylethynyl)pyridine ligand 1 hr post-administration of 10 mg/kg compound ip
Type: organism-based
Parameters: dose 10 mg/kg
# note: exactly 90% is not below, so it is no (0); use yes (1) for Occupancy strictly under it

Fc1cc(Oc2cccnc2)cc(-n2nnc(-c3ncc[nH]3)n2)c1	yes (1)
Cc1c[nH]c(-c2nnn(-c3cc(F)cc(C#N)c3)n2)n1	no (0)
Cc1ccncc1-c1cc(F)cc(-n2nnc(-c3ccccn3)n2)c1	no (0)
Cc1ccncc1-c1cc(F)cc(-n2nnc(-c3ncc[nH]3)n2)c1	yes (1)

API: the following record is the query input.
INPUT: I wonder whether "N#Cc1cc(F)cc(-n2nnc(-c3ncc[nH]3)n2)c1" has Occupancy below 90%. Can you tell?
OUTPUT: no (0)
